The measured values listed here are drawn from PubChem BioAssay (NCATS).

system: CP217; assay: qHTS profiling for inhibitors of Plasmodium falciparum proliferation (AID 504749); also: nearly all actives have a fitted effect of over 60% in size; conditions: P. falciparum in erythrocytes, SYBR Green DNA, 72 h; series mostly up to 28.7 µM
Results filed as inconclusive are left out. The source made the active and inactive calls. Calls follow the shape of the dose curve; as a rule, active = well fitted inhibition curve with a large enough effect; inconclusive = small, poorly fitted or top-dose-only effect; inactive = flat fitted curve, though single readings scatter.
# output must be one of Yes (active), No (inactive)

Field: example entries. Status: answers known.
Compound | Class Name
CCCC[C@H]1C(=O)N(c2ccccc2)N(c2ccc(O)cc2)C1=O | No
O=C(O)C[CH2][Ge](=[O])[O][Ge](=[O])[CH2]CC(=O)O | No

Answer briefly: the call reported for CC(=O)NC1[C@H](O)C[C@@](O)(C(=O)O)O[C@H]1[C@H](O)[C@H](O)CO (stereo partly specified) in this assay. No

Given CCCC[C@H](O)c1ccccc1 , state the outcome it received in this test. No

Record lookup: outcome of this test for C[C@]12CC[C@@H]3c4ccc(O)cc4CC[C@H]3[C@@H]1C[C@H](O)C2O (stereo partly specified) ? No

What outcome does the record of this test show for C[n+]1c2cc(N)ccc2cc2ccc(N)cc21 ? Yes

Could you check what this test reported for CCCC(=O)Nc1c(I)cc(I)c(C[C@H](CC)C(=O)O)c1I ? No

Assay result, entry CN(C)CC/C=C1\c2ccccc2COc2ccc(CC(=O)O)cc21 — outcome? No

Per the records of this test, what outcome belongs to CO[C@H]1OC2O[C@@]3(C)CC[C@H]4[C@H](C)CC[C@@H]([C@H]1C)[C@@]24OO3 (stereo partly specified) ? Yes

Entry CCN(CC)C(=O)[C@@]1(c2ccccc2)C[C@@H]1CN : call = ? No

Outcome logged for CC(=O)OCC(=O)[C@@]1(O)CCC2C3C[C@H](C)C4=CC(=O)C=CC4(C)C3C(O)CC21C (stereo partly specified) in this assay: No
